Biological target: Tyrosine-protein kinase JAK3 (Homo sapiens, UniProt P52333)
Sequence (P52333 whole entry): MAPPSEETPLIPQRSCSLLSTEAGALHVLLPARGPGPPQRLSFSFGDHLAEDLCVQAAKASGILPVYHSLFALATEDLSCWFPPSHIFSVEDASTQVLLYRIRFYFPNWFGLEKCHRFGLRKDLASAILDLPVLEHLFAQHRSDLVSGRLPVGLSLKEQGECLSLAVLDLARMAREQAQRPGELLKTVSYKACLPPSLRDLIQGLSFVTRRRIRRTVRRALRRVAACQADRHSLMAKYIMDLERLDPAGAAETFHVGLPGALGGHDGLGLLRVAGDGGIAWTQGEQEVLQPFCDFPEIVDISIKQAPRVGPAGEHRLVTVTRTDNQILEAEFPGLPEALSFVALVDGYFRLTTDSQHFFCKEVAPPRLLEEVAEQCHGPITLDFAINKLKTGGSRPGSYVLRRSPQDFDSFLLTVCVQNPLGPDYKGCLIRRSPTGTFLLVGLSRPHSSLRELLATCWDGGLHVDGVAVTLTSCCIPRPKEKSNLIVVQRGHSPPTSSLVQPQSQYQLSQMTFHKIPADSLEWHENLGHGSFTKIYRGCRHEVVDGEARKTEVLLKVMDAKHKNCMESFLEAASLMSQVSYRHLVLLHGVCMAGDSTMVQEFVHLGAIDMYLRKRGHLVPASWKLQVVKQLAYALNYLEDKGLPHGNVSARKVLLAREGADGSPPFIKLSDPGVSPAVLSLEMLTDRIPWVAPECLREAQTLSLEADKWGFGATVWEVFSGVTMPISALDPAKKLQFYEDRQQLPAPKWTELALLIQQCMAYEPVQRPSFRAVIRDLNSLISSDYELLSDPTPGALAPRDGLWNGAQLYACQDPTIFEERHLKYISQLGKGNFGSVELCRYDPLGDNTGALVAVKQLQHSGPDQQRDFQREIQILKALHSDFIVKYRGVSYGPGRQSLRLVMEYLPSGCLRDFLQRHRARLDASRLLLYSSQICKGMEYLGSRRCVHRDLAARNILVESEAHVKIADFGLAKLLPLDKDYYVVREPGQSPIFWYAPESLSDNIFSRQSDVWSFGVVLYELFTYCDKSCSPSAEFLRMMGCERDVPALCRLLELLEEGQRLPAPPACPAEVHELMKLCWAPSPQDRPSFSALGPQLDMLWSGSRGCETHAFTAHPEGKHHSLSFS
Assay: Inhibition of JAK: The study of the effect of compounds on the activity of purified recombinant JAK was performed by studying the inhibitory activity of the compounds on JAK from the enzymatic level. The experimental principle is to use a luminescence kinase assay to detect the ADP content produced by the reaction of JAK with the substrate Poly (4:1 Glu, Tyr) peptide: after ADP is converted to ATP, ATP can act as a substrate for the Ultra-Glo luciferase catalytic reaction, producing an optical signal. The luminescence signal is positively correlated with the amount of ADP and kinase activity. Therefore, the inhibitory effect of the compounds on the recombinant JAK was determined by observing the luminescence signal produced by the reaction of JAK and the substrate, and was expressed by IC50.
Assay Metric: IC50

| Smiles Structure | Target | IC50 |
| --- | --- | --- |
| CS(=O)(=O)C1CN(Cc2ccc(-c3cccc4nc(NC(=O)C5CC5)nn34)cc2F)C1 | Tyrosine-protein kinase JAK3 (Homo sapiens, UniProt P52333) | > 50 nM |

Pending compound:
Observed IC50 on Tyrosine-protein kinase JAK3 (Homo sapiens, UniProt P52333) for CS(=O)(=O)C1CN(Cc2ccc(-c3cccn4nc(NC(=O)C5CC5)nc34)cc2F)C1 , please. > 50 nM
